Assignment: determine reported TGI for the given molecules.
Test system: 786-0 renal
ASSAY_REMARKS: NCI tumour cell line growth inhibition, 48 h
Entry rule: numbers only, all in µM.

Would you kindly share the measured TGI for C=C1CC2[C@H](C)C(=O)CCC2(C)C2=C1C1CCC(C(C)CCC(=C)C(C)C(=O)O)C1(C)CC2=O (some centres undefined) ?
40.1

Which TGI is reported for this molecule? CCCCCCCCCCCCCCCC1(OC)C[N+](C)(C)CCO1 (centres undefined)
2.05

Would you kindly share the measured TGI for "COc1cc2c(cc1OCCCOc1ccc(-c3nc4ccc(N5CCN(C)CC5)cc4[nH]3)cc1)N=C[C@@H]1CCCN1C2=O" ?
0.524

Look up TGI: "O=C(CCCCCCCCC(=O)N/N=C\c1cc(Cl)ccc1O)N/N=C\c1cc(Cl)ccc1O"
15.5

* * *

Record form. Attribute: TGI. Fill in for each entry.
Test system: U251 CNS
ASSAY_REMARKS: NCI tumour cell line growth inhibition, 48 h

For CCOC(=O)C(C/C=C/CO)N(C)C(=O)OC(C)(C)C (stereo not given) , what is its reported TGI?
> 100 µM

What does the record list as TGI for "CC(C)(C)Sc1nnc(SC(C)(C)C)c2c(=O)[nH]nc(SC(C)(C)C)c12" ?
19.7 µM

// lookup TGI for "COc1ccc2c(c1)c1c3n2CCNN=C3CCC1"
> 100 µM

Reported TGI for "COc1cccc(NC2=C(Cl)C(=O)N(Cc3ccc(Cl)cc3)C2=O)c1" : what is it?
> 34.6 µM

# TGI lookup, item "Cc1ccc(/C=N/NS(=O)(=O)c2ccccc2)c(C)c1"
> 100 µM

Item "CC(C)=NOC(=O)Nc1cccc2c1OCO2" has what recorded TGI?
> 100 µM

Name the reported TGI value associated with the compound "O=C(Nc1ccc2ccccc2c1)c1cc2cc(CCl)ccc2oc1=O"
> 100 µM

Given the compound "Cc1ccc(S(=O)(=O)Nn2c(O)c(C#N)c(-c3ccc([N+](=O)[O-])cc3)c(C#N)c2=O)cc1" , what is its reported TGI?
> 100 µM

Dear colleague, I am looking for the recorded TGI of the following compound: "c1ccc(-c2nnc3nn4c(-c5ccccc5)cnnc4c3c2-c2ccccc2)cc1"
> 100 µM

Could you share which TGI value was measured for "COc1cc(-c2cc(=O)c3c(O)c(OC)c(OC)c(OC)c3o2)cc(OC)c1OC" ?
> 22.2 µM

* * *

Tested on: IGROV1 ovarian
ASSAY_REMARKS: NCI tumour cell line growth inhibition, 48 h
Answer each item with its documented TGI.

Need TGI, item CC(C)[Si](OCC1CC(C#N)OC(C)(C)O1)(C(C)C)C(C)C (centres undefined)
> 100 µM

TGI lookup needed for "COc1cc(/C=N/NC(=O)c2ccccc2Nc2cccc(C(F)(F)F)c2)cc(OC)c1OC" , thanks.
14.2 µM

Data request, read-out TGI, for "COc1cc(-c2cc(=O)c3c(O)c(OC)c(OC)c(OC)c3o2)cc(OC)c1OC"
> 100 µM

Suppose we examine the compound "COC(=O)c1cc(/C=C\c2cc(OC)ccc2OC)ccc1OC" ; what TGI value has been reported?
42.2 µM

Using the record for "O=c1c2ccccc2nc(-c2ccccc2)n1NC(=S)Nc1cccc(Cl)c1" , report its TGI.
> 100 µM

# get_value(readout='TGI', item= "C/C(=N/O)c1ccc(Nc2cc(-n3ccnc3)c3ccccc3n2)cc1" )
52.8 µM

Requested read-out: TGI. Entry: CC(=O)NC1C(OCc2ccccc2)OC(CO)C(O)C1OCC(=O)N[C@@H](C)C(=O)N[C@H](CCC(=O)NCCCNc1ccc([N+](=O)[O-])c2[nH]c3ccccc3c(=O)c12)C(N)=O (some centres undefined)
> 100 µM

# get_value(readout='TGI', item= CC(C(N)=O)N(C)C(=O)c1cnc2ccccc2c1 (centres undefined) )
> 100 µM

I would be grateful if you could share the reported TGI for "O=c1[nH]c2ccc([N+](=O)[O-])cc2nc1/C=C(\O)c1ccccc1" .
> 100 µM

If you can, please state the reported TGI value of "CCCCCCCCCCCCO[P+](=O)OCCCCCCCCCCCC" .
> 100 µM

Look up TGI for this compound: "O=C(Nc1ccc2ccccc2c1)c1cc2cc(CCl)ccc2oc1=O"
> 100 µM

What value of TGI has been recorded for this entry: "CCOC(=O)/C=C/[C@@H](CC)O[Si](C(C)C)(C(C)C)C(C)C"
> 100 µM

Tell me the measured TGI of "N#C/C(=C\c1ccc2[nH]ccc2c1)C(=O)c1ccc(O)c(O)c1" , please.
> 100 µM

Any idea what its TGI is? The compound is "Cn1cc(C2=C(c3cn(CCCCC(=N)N)c4ccccc34)C(=O)NC2=O)c2ccccc21"
> 25 µM

Which TGI value belongs to "COc1ccc2c([nH]c3c(O)c(-c4c(C)cc5c([nH]c6c(CC=C(C)C)c(OC)ccc65)c4O)c(C)cc32)c1CC=C(C)C" ?
> 100 µM

Quick one: TGI for COc1ccc(NC(=O)C2C(=O)N(c3ccc(OC)cc3)C(=O)/C2=N\NC(N)=O)cc1 (centres undefined) ?
45 µM

Using the record for "O=C1C=C(N2CCN(CCOCCO)CC2)C(=O)c2c(O)ccc(O)c21" , report its TGI.
9.9 µM

Recorded TGI for "N#Cc1nc(/C=C/c2cccnc2)oc1N" , please?
> 100 µM

Return reported TGI; argument: COC(=O)C(NC(=O)OC(C)(C)C)P(=O)(OC)OC (centres undefined)
> 100 µM

Request the reported TGI associated with "Cc1cc2nc3c4ccc(Br)cc4n(CCN(C)C)c3nc2cc1C"
3.97 µM

Request the reported TGI associated with "Cn1cc(-c2nc(N[C@@H]3CCCC[C@@H]3N)c(F)c3c2C(=O)NC3)cn1"
> 68.9 µM

Name the reported TGI value associated with the compound "O=C(/C=C/c1cccc2ccccc12)Nc1ncc(Cc2ccccc2)s1"
> 87.3 µM

Find the recorded TGI belonging to CN/N=C(\C(=O)Nc1ccc(C)c(C)c1)C(C(=O)OC)c1nc2ccc([N+](=O)[O-])cc2[nH]c1=O (centres undefined) and report it.
> 100 µM

Form field: reported TGI of "Cc1c(Cl)c(C)c(Cc2c(C)c(Cl)c(C)c(Cl)c2O)c(O)c1Cl"
19 µM

Any idea what TGI was measured for CC(=O)NC(CCCN(Cc1ccccc1)C(=O)N(C)N=O)C(=O)NCc1ccccc1 (centres undefined) ?
> 100 µM

Looking for the measured TGI of "O=C(NCCCCCN1CCC2(CCCCC2)CC1)C(C1CCCCC1)C1CCCCC1" , can you help?
8.78 µM

Data request, read-out TGI, for "O=S(=O)(O)c1cc(S(=O)(=O)O)c2c(N=Nc3ccc(N=Nc4ccccc4)cc3)c(O)ccc2c1"
> 100 µM

Given the entry "Cc1ccc(/C=C2/N=C(N/N=C\c3ccccc3)NC2=O)cc1" , report its measured TGI.
> 100 µM

Recorded TGI of "COC(=O)c1ccc(NCC2=C(Br)C(=O)C=CC2=O)cc1Cl" , please.
30.5 µM

Given the entry "Cc1ccc(NC(=O)CC(=O)n2nc(C)c(N=Nc3cccc(C)c3)c2C)cc1" , report its measured TGI.
> 100 µM

Which measured TGI value corresponds to CC(C)C(NC(=O)C(Cc1ccccc1)NC(=O)[C@H]1CCC[C@H]1NC(=O)C(Cc1ccc(OC(C)(C)C)cc1)NC(=O)OC(C)(C)C)C(N)=O (some centres undefined) ?
> 100 µM

Would you kindly share the measured TGI for Cc1ccc(S(=O)(=O)NC(CO)C(=O)O)cc1 (centres undefined) ?
> 100 µM

Dear colleague, I am looking for the recorded TGI of the following compound: CCOC(=O)C(C)N1C(=O)c2ccccc2S1(=O)=O (centres undefined)
> 100 µM

What does the record list as TGI for "CN(C)/C=C/C=C(/C=N/S(=O)(=O)C(F)(F)F)C1C=CN(S(=O)(=O)C(F)(F)F)C=C1" ?
> 100 µM

Value lookup for TGI; key = "CC(C)NC(=O)OCc1c(COC(=O)NC(C)C)c(-c2cc[n+](COC(=O)C3CCCCC3)cc2)n2c1CCC2"
> 100 µM

Look up TGI for this compound: "O=C(NOCCO)c1cc(CN2OCCCC2=O)c(F)c(F)c1Nc1ccc(I)cc1F"
> 52.5 µM

What does the data say about its TGI? Entry: "Cc1cc(Br)cc(C)c1NC(=O)C(=O)Nn1c(=S)[nH]c2ccccc2c1=O"
> 100 µM

Entry "CCOC(=O)Cn1c(=O)c(C)cn(COCCO)c1=O" : reported TGI = ?
> 100 µM

Can you look up the measured TGI of "O=S(=O)(O)c1ccc2c(N=Nc3ccc(Sc4ccc(N=Nc5c(O)ccc6cc(S(=O)(=O)O)ccc56)cc4)cc3)c(O)ccc2c1" for me?
> 100 µM
